Target: alpha2 receptor (guinea pig vas deferens) (Cavia porcellus, UniProt Q60474)
Construct: both vasa deferentia were removed and placed in a dish; from tissue; host or cells: isolated vas deferens of male guinea pigs
Sequence (Q60474 1-464): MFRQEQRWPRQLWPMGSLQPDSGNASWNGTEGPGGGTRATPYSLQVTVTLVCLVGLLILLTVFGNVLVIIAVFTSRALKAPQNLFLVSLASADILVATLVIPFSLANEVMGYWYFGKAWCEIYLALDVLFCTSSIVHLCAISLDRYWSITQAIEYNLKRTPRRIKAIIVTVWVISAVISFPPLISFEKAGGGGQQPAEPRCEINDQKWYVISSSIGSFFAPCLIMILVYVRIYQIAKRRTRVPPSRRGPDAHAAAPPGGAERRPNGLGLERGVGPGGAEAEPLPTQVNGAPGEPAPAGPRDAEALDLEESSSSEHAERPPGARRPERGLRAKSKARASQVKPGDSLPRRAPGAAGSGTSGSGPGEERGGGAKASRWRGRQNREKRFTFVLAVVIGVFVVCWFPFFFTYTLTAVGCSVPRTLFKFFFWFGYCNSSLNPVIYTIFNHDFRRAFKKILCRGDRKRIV
Test: Alpha2 activity in isolated, superfused guinea pig vas deferens: stimulated/basal 3H-norepinephrine release
Format: cell-based
Conditions: guinea pig vas deferens; concentration producing a 50% increase in the stimulated/basal release ratio; read-out: EC50 alpha2 Vas Def
pEC50: −log10 of the molar value.
Readout Kind: pEC50

Recorded result, CC=COc1ccc(Cl)c2c1CCN(C)CC2 [F] , pEC50: < 5.00
